Where do these numbers come from? They come from PubChem BioAssay (NCI).

Assay overview: NCI Yeast Anticancer Drug Screen. Data for the bub3 strain (AID 167)
Measurement conditions: S. cerevisiae bub3 mutant strain, at 50.0 µM (retest, dose inferred, filed as 5.0), hits give high values
This is part of a sample that, as a whole, favours compounds with a hit. Of some 79,000 tested, about 15% had one in any assay.
Measured endpoint: growth inhibition (%)
One number for each entry, in %.

Study these solved cases before continuing.
{"columns": ["Molecule", "Units label", "Result number"],
 "data": [
  ["Fc1ccc(OCCC(Cn2ccnc2)c2ccc(Cl)cc2Cl)cc1 (centres undefined)", "%", 94],
  ["Cc1c(N)nc(C2CC(=O)N2CC(N)C(N)=O)nc1C(=O)NC(C(=O)NC(C)C(O)C(C)C(=O)NC(C(=O)NCCc1nc(-c2nc(C(=O)NCCCNC3CCCC3)cs2)cs1)C(C)O)C(OC1OC(CO)C(O)C(O)C1OC1OC(CO)C(O)C(OC(N)=O)C1O)c1cnc[nH]1 (centres undefined)", "%", 98],
  ["O=C(c1ccccc1)C1N=NCC1c1ccc([N+](=O)[O-])cc1 (centres undefined)", "%", 5]
]}

Continue with the next molecule.
Find the recorded growth inhibition belonging to Cc1ccc(N2CCN(c3c(N)cncc3Br)CC2)cc1 and report it.
71

###

Assay overview: NCI Yeast Anticancer Drug Screen. Data for the sgs1 mgt1 strain (AID 161);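 also: 0% = growth of cultures given vehicle only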
Measurement conditions: S. cerevisiae sgs1 mgt1 strain, at 5.0 µM (retest, dose inferred, filed as 0.5), hits give high values
This is part of a sample that, as a whole, favours compounds with a hit. Of some 79,000 tested, about 15% had one in any assay.
Task for the reader: assign each of the following compounds its reported growth inhibition.
Numbers only, in %.

Study these solved cases before continuing.
{"columns": ["Compound", "Units label", "Result number"],
 "data": [
  ["NC(CSSCC(N)=NCCCCCSC12CC3CC(CC(C3)C1)C2)=NCCCCCSC12CC3CC(CC(C3)C1)C2", "%", 1],
  ["Cc1ccc(S(=O)(=O)C2C=CC=CC=C2)cc1", "%", -64],
  ["O=C1c2cccc3cc([N+](=O)[O-])cc(c23)C(=O)N1O", "%", 13],
  ["COC(=O)N/N=C(\\C)C(CN1CCOCC1)C(c1ccccc1)c1cc2ccccc2oc1=O (stereo unspecified)", "%", 14],
  ["Cc1cc(C(O)(C(F)(F)F)C(F)(F)F)cc(C(O)(C(F)(F)F)C(F)(F)F)c1", "%", -6]
]}

Your task in this section: give growth inhibition for each listed record.
1. CC(=O)N1C(c2[nH]c3ccccc3c2-c2ccccc2)CCN1c1ccccc1 (stereo unspecified)
2. Cc1ccc(S(=O)(=O)Oc2c([N+](=O)[O-])cc(C)cc2[N+](=O)[O-])cc1
3. CCC(N)(CO)CO
4. ClC(Cl)(Cl)C1OCOC(C(Cl)(Cl)Cl)O1 (stereo unspecified)
5. O=c1[nH]c2ccccc2c2oc3ccccc3c12

1: 14; 2: 14; 3: 2; 4: 11; 5: -4

Find the recorded growth inhibition belonging to COC(=O)CSc1n[nH]c(-c2ccc(O)c([N+](=O)[O-])c2)n1 and report it.
25

###

Assay overview: NCI Yeast Anticancer Drug Screen. Data for the bub3 strain (AID 167)
Measurement conditions: S. cerevisiae bub3 mutant strain, at 50.0 µM
Experimental: Growth inhibition of yeast strains with defined genetic alterations is measured as a screen for potential anti-cancer activity. Selected strains with alterations in DNA damage repair or cell cycle control were exposed to compounds and growth inhibition was measured relative to vehicle treated controls. The strain used in this assay is bub3
About 79,000 compounds went through this panel and 15% of them were active in at least one assay; those are over-represented in the sample as a whole. The source made the active and inactive calls. Rule as the data show it: active = growth inhibition above about 70%; inactive = the rest.
Entry note: the call must match one of 1.0 for active, 0.0 for inactive

{"columns": ["Compound", "Answer label"],
 "data": [
  ["CSC(=Nc1ccccc1)/N=C(\\SCc1ccccc1)N(C)C", 1.0],
  ["Oc1ccc(C(c2ccccc2)(c2ccccc2)c2ccccc2)cc1O", 1.0],
  ["Cc1cc(N)cc(C)c1-c1c(N)cc(Br)cc1Br", 1.0]
]}

Field: outcome | Entry: CC1(C)C=CC2=C(O1)C(=O)c1ccccc1C2=O
0.0

Field: outcome | Entry: O=C(/C=C/c1ccccc1)NOC(=O)/C=C/c1ccccc1
1.0

Field: outcome | Entry: Oc1c(Cl)cc(Cl)c(Cc2c(Cl)cc(Cl)c(O)c2Cl)c1Cl
0.0

Field: outcome | Entry: OC(Cc1ccc(Br)cc1)CN1CCC(c2ccccc2)CC1 (stereo not given)
1.0

Field: outcome | Entry: Nc1ccccc1Sc1ccc(F)cc1[N+](=O)[O-]
1.0

Field: outcome | Entry: CCC(O)C(O)(c1ccccc1)c1nc2ccccc2s1 (stereo not given)
0.0

Field: outcome | Entry: S=C(NCc1ccccc1)N/N=C/c1ccccn1
0.0

Field: outcome | Entry: Fc1ccc(NC(=S)SCc2ccc(Cl)c(Cl)c2)cc1
1.0
